# assay_info: S. cerevisiae RM11-1a growth modifiers, primary screen, strain RM11-1a, OD600, basal, 24 h (AID 1177);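 further: cultures grown under basal conditions with no added stressor; test concentration not given here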
# test_conditions: OD600, 24 h, higher = more signal, called active from +8 up or from −8 down
Catalogue of z-score values
Please reply with the number alone, leaving off any unit.

Check out these entries, answers already filled in.
COCCOC(=O)N1C(=O)[C@@]2(c3cc(C#CCNC(N)=O)ccc31)[C@H](C(=O)N1CCN(c3ncccn3)CC1)[C@H]1C(=O)O[C@H](c3ccccc3)[C@H](c3ccccc3)N1[C@@H]2c1ccc(OCCO)cc1
2.16
C=C(/C(=C/C[C@H](OC(C)=O)c1ccccc1OCCO)c1cnc2ccccc2c1)C(C)C
1
CCOC(=O)[C@H]1C/C=C/C[C@H](C(=O)OCC)C(=O)O[C@H]2[C@@H](OC)O[C@H](CO)[C@@H](OC(=O)c3c(OC)cccc3OC)[C@@H]2OC1=O
0.996

Exam item: What value of z-score has been reported for the following compound? CCCC[C@@H]1C[C@H]1[C@@H](NC(=O)c1ccccc1)c1ccc(C(=O)OC)cc1
Marked response: -0.75

Exam item: Please do the same for [N-]=[N+]=NCc1ccccc1C[C@]1(C(=O)N2CCCCC2)N=C(c2ccc(OCCCO)cc2)O[C@H]1c1ccccc1N=[N+]=[N-] as well.
Marked response: 0.875

Exam item: Now this one: COC(=O)[C@H](Cc1ccccc1)N1CC2=C[C@@H](C3CC3)n3c(=O)n(C)c(=O)n3[C@H]2[C@@H]1[C@@H](O)Cc1ccccc1
Marked response: -0.143

Exam item: Next compound: [N-]=[N+]=Nc1ccccc1[C@@H]1OC(c2ccc(OCCCO)cc2)=N[C@]1(CCS(=O)(=O)c1ccccc1)C(N)=O
Marked response: -0.0594

###

# assay_info: binders of probe aFGF2 on microarray, primary screen, stem cell growth factor project, biochemical, small-molecule microarray, fluorescence 635/667 (AID 1067);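 further: measures binding of biotinylated aFGF2 protein to printed compounds on slides; z-score merges feature fluorescence and signal-to-noise across triplicate slides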
# test_conditions: higher = more signal
The label depends only on composite z-score: Criterion met if it is at least 0.03, Criterion not met if it is smaller.

O=C(NCCN1CCOCC1)C1N=C(c2ccc(OCCCO)cc2)N(c2ccccc2)O1 (configuration not stated)
Criterion met
CCOC(=O)C[C@H]1[C@H](OC(=O)c2ccc(C(=O)c3ccccc3)cc2)[C@@H](NC(=O)c2ccccc2)c2cc(OCCCO)ccc2N1C(=O)c1ccc2ccccc2n1
Criterion not met
C=CCOC(=O)[C@@H]1[C@H]2C(=O)O[C@H](c3ccccc3)[C@H](c3ccccc3)N2[C@H](c2ccc(OCCOC(=O)[C@H]3C[C@H]4C(=O)N5CCC[C@H]5C(=O)N4[C@H]3c3ccc(O)cc3)cc2)[C@@]12C(=O)Nc1ccc(I)cc12
Criterion not met
Cc1ccc(S[C@]2(C(=O)NCCCN(C)C)CC(=O)N(Cc3ccccc3C(F)(F)F)[C@@H]2c2ccc(CO)cc2)cc1
Criterion not met
COC(=O)[C@@]1(Cc2ccccc2)[C@H]2c3cc(C(=O)N4CCCC4)n(Cc4ccc(S(C)(=O)=O)cc4)c3C[C@H]2CN1C(=O)c1ccccc1
Criterion met

Exam item: For this compound, is measured composite z-score 0.03 or higher? COCCCNC(=O)[C@@]1(C)c2ccccc2C(=O)N(C(C)C)[C@H]1c1ccc(CO)cc1
Marked response: Criterion not met

###

Reported values of z-score for individual entries
# assay_info: modulators of HCV replicon luciferase signal, primary screen, HCV replication inhibitor project, Huh7 cells, luciferase reporter (AID 1109);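 further: huh7 hepatoma cells harbouring a luciferase neomycin HCV replicon reporter; luciferase luminescence as measure of HCV replicon replication; test concentration not given here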
# test_conditions: 48 h, higher = more signal
Number, no unit, nothing else.

Please review the following examples before continuing.
COC(=O)C(CC#Cc1ccc2c(c1)[C@]1(C(=O)N2)[C@H](c2ccc(OCCO)cc2)N2[C@H](c3ccccc3)[C@H](c3ccccc3)OC(=O)[C@H]2[C@@H]1C(=O)N1CCc2cc(OC)c(OC)cc2C1)C(=O)OC
-1.01
COC(=O)C[C@H]1O[C@]2(C(=O)N(C)c3ccccc32)[C@@H](C)[C@@H]1[Si](C)(C)F
0.0456
CN(C)CCCCCCNC(=O)[C@@H]1C[C@@H]2C(=O)N[C@@H](Cc3ccccc3)C(=O)N2[C@@H]1c1ccc(O)cc1
2.17
[N-]=[N+]=NCc1ccccc1C[C@]1(C(=O)N2CCCCC2)N=C(c2ccc(OCCCO)cc2)O[C@H]1c1ccccc1N=[N+]=[N-]
-2.92
C=C(COC)/C(=C/C[C@@H](OC(C)=O)c1ccc(OCCO)cc1)c1cnc2ccccc2c1
-1.19

Exam item: I am curious: what z-score value has been reported for COCCOC(=O)N1C(=O)[C@@]2(c3cc(C#CCC(C(=O)OC)C(=O)OC)ccc31)[C@H](C(=O)Nc1nc3ccccc3s1)[C@H]1C(=O)O[C@H](c3ccccc3)[C@H](c3ccccc3)N1[C@@H]2c1ccccc1OCCO ?
Marked response: -1.52

Exam item: Try the compound CCC(CC)C(O)C1C=CC2C(=O)NC(=O)C2N1Nc1ccccn1 (configuration not stated)
Marked response: -0.642

Exam item: Then what about the compound Cc1ccc(S[C@]2(C(=O)O)CC(=O)N(C(C)C)[C@@H]2c2ccc(CO)cc2I)cc1 ?
Marked response: -1.31

Exam item: What would you report for Cc1ccc(S[C@]2(C(=O)NCCCN(C)C)CC(=O)N(Cc3cc(C(F)(F)F)cc(C(F)(F)F)c3)[C@@H]2c2ccc(CO)cc2)cc1 ?
Marked response: 0.478

Exam item: Now consider C=CCC(OC(C)=O)[C@@H]1[C@@H](N(Cc2cccc3ccccc23)C(=O)c2ccc(-c3ccccc3)cc2)c2cc(OCCCO)ccc2N1C(=O)c1ccc2ccccc2c1 (some centres not stated) .
Marked response: 0.098

Data origin: PubChem BioAssay
